Assay system: MSH2 (human MutSbeta) (Homo sapiens, UniProt P43246)
Construct: Msh2(1-934), Gene ID NP_000242.1
Sequence (P43246 whole entry): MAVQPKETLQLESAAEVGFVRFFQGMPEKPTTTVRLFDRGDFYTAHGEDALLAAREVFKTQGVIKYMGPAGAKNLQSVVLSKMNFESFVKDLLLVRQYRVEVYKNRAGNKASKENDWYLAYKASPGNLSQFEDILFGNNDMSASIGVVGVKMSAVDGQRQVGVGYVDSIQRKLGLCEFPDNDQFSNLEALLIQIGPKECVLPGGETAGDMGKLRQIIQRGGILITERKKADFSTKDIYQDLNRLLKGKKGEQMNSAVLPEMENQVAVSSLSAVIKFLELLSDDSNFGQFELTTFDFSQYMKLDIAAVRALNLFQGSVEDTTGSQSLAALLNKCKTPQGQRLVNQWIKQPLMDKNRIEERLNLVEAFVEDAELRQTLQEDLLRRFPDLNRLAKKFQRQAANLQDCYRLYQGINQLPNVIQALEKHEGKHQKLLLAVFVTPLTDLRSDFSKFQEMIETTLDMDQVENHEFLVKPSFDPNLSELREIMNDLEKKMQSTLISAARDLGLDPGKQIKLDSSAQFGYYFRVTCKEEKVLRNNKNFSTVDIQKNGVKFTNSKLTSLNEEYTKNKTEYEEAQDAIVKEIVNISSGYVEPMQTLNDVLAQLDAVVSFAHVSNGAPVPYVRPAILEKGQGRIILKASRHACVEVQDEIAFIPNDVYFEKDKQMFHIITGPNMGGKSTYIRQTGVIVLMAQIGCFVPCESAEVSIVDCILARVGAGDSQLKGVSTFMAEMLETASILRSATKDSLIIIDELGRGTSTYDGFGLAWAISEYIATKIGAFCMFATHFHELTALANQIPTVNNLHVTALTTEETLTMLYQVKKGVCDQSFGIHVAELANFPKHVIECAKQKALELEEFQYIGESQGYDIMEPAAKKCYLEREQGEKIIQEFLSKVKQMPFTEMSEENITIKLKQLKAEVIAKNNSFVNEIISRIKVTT
Sequence (P20585 whole entry partner): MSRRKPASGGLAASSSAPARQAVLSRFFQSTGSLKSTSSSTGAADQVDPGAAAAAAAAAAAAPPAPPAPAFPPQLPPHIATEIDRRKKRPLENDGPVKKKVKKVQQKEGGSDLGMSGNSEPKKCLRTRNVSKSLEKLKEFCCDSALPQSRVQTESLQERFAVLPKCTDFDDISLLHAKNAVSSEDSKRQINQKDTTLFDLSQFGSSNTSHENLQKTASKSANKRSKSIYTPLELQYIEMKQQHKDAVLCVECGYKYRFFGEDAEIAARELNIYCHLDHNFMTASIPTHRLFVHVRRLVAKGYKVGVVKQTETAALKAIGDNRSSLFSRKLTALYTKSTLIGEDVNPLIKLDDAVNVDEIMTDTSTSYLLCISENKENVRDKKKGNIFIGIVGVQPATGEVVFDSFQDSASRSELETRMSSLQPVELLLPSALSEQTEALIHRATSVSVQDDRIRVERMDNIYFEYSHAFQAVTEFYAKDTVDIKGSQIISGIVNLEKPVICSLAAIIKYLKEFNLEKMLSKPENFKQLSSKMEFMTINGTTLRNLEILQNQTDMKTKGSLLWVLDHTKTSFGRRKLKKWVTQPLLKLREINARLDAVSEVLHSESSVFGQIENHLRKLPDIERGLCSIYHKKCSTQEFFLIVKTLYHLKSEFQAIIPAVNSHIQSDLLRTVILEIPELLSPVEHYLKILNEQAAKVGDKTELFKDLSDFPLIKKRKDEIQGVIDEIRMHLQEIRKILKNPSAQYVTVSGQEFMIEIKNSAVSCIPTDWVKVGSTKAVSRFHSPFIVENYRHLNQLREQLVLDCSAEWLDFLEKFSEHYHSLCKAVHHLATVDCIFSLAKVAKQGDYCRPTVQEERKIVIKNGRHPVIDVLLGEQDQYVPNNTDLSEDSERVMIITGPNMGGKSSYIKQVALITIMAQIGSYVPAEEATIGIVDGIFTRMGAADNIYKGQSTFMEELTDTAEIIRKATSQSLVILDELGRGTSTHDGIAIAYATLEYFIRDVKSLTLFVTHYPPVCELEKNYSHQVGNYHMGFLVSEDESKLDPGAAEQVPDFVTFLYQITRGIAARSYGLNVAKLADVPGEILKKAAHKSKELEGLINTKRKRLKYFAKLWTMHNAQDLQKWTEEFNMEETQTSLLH
Assay text: ATP binding and cross-linking assay (MSH2 subunit)
Protocol conditions: [32P]-ATP UV cross-linking to MSH2 subunit of MutSbeta; read-out: cross-link assay IC50 MSH2
Measured metric: IC50 (µM)

(1) Cc1ccc(Nc2nc(N3CCN(C)CC3)nc3nccnc23)cc1C
(2) CCN1CCN(c2nc(Nc3ccc(Cl)cc3)c3nccnc3n2)CC1
*Q* Pick one, 1 or 2 : lowest reported IC50. Pick one and reply with its label.
*A* 1
(1: 120 µM, 2: 215 µM)

====

Assay system: human MutSbeta (Homo sapiens, UniProt P20585+P43246)
Construct: Msh2(1-934), Gene ID NP_000242.1; Msh3(1-1137), Gene ID J04810.1
Sequence (P43246 whole entry): as the sequence (P43246 whole entry) above
Sequence (P20585 whole entry): as the sequence (P20585 whole entry partner) above
Assay text: ADP Glo assay 1.1
Format: biochemical
Protocol conditions: SPA buffer, no Ovalbumin; enzyme added to compounds before ATP; read-out: ADP Gol 1.1 assay IC50
Procedure: ADP Glo assay 2.1: Enzyme human MutSbeta (Msh2(1-934), Gene ID NP_000242.1, Msh3(1-1137), Gene ID J04810.1) with 22 bp biotin-labeled DNA containing a GT-mismatch (purchased from Curia Global, TOP 5′-[…]-3′; BOT 3′-AGTAGCTAGGC - - - CGAAGTCTACC-5′-Biotin) was pre-incubated in assay buffer (25 mM HEPES pH=7.5, 150 mM KCl, 5 mM MgCl2, 5 mM GSH, 0.1% Pluronic F-127, 0.2% Ovalbumin) to allow formation of the enzyme-DNA complex. […]
pIC50: −log10 of the molar value.
Measured metric: pIC50

# example entries with known answers
Smiles input: CCN1CCN(c2nc(Nc3ccc(Cl)cc3)c3nccnc3n2)CC1
Recorded measurement: 4.19

Smiles input: Cc1cccc(Nc2nc(N3CCN(C)CC3)nc3nccnc23)c1
Recorded measurement: 4.09

Smiles input: CN1CCN(c2nc(NCc3ccccc3)c3nccnc3n2)CC1
Recorded measurement: 4.20

(A) Cc1ccc(Nc2nc(N3CCN(C)CC3)nc3nccnc23)cc1C
(B) Cc1ccc(Nc2nc(N3CCN(C)CC3)nc3nccnc23)cc1Cl
*Q* Between the entries labelled A and B , which has a larger pIC50 value on record? Pick one and reply with its label.
*A* A
(A: 4.26, B: 3.96)

====

Assay system: human MutSbeta (Homo sapiens, UniProt P20585+P43246)
Construct: Msh2(1-934), Gene ID NP_000242.1; Msh3(1-1137), Gene ID J04810.1
Assay text: ADP Glo assay 2.1
Format: biochemical
Protocol conditions: 10 μM ATP, 7 nM enzyme; buffer with 5 mM GSH, 0.2% Ovalbumin
pIC50: −log10 of the molar value.
Measured metric: pIC50

*Q* State the recorded pIC50 for this entry: `Cc1ccc(Nc2nc(N3CCCN(C)CC3)nc3nccnc23)cc1C`
*A* ≤ 3.70

*Q* Thanks! And `Cc1cc(CNc2nc(N3CCCN(C)CC3)nc3nccnc23)ccc1F` ?
*A* ≤ 3.70

*Q* Thanks! And `Cc1cccc(Nc2nc(N3CCN(C)CC3)nc3nccnc23)c1C` ?
*A* ≤ 3.70

====

Entries and their IC50
Assay system: human MutSbeta (Homo sapiens, UniProt P20585+P43246)
Construct: Msh2(1-934), Gene ID NP_000242.1; Msh3(1-1137), Gene ID J04810.1
Assay text: ADP Glo assay 2.1
Assay type: biochemical
Protocol conditions: 10 μM ATP, 7 nM enzyme; buffer with 5 mM GSH, 0.2% Ovalbumin

# example entries with known answers
Compound: CN1CCN(c2nc(Nc3cccc(F)c3)c3nccnc3n2)CC1 [Compound 34]
Assay system: human MutSbeta (Homo sapiens, UniProt P20585+P43246)
IC50: ≥ 200 µM
//
Compound: CN1CCN(c2nc(NCc3cccc(S(C)(=O)=O)c3)c3nccnc3n2)CC1 [Compound 42]
Assay system: human MutSbeta (Homo sapiens, UniProt P20585+P43246)
IC50: ≥ 200 µM
//
Compound: CCN1CCN(c2nc(Nc3ccc(F)c(F)c3)c3nccnc3n2)CC1 [Compound 16]
Assay system: human MutSbeta (Homo sapiens, UniProt P20585+P43246)
IC50: > 200 µM
//
Compound: CCC(=O)Nc1cccc(Nc2nc(N3CCCN(C)CC3)nc3nccnc23)c1 [Compound 35]
Assay system: human MutSbeta (Homo sapiens, UniProt P20585+P43246)
IC50: ≥ 200 µM

Next up:
*Q* State the recorded IC50 for this entry: Cc1ccc(Oc2nc(N3CCN(C)CC3)nc3nccnc23)cc1C [Compound 32]
*A* ≥ 200 µM
